- target_or_system: Kras and SOS1 (biotin-tagged human Kras loaded with GDP, His-tagged human SOS1) (Homo sapiens, UniProt P01116, G12D)
- Construct: made in house; host or cells: E. coli (stated for Kras only)
- Sequence (P01116 1-188 isoform P01116-2 G12D): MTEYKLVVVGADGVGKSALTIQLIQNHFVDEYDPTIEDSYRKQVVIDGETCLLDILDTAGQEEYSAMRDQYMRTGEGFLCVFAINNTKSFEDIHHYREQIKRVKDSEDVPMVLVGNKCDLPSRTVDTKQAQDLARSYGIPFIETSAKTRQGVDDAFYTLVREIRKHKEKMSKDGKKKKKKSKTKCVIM
- assay_details: Protein-protein interaction inhibition between Kras and SOS1 (KrasGl2D-SOS PPI) using AlphaScreen
- Format: binding
- measurement_context: AlphaScreen; biotin-tagged human Kras loaded with GDP, His-tagged human SOS1; read-out: KRAS G12D-SOS PPI IC50
Positions of bridges follow the written chain, without caps; N, C: chain ends. Non-standard residues stand in square brackets, D forms with d. Residues, ends and D or L forms follow the SMILES beside them. *: point of attachment. hPhe(3,5-F2-4-CF3) = N[C@@H](CCc1cc(F)c(C(F)(F)F)c(F)c1)C(=O)O; hPhe(3-Cl-4-CF3) = N[C@@H](CCc1ccc(C(F)(F)F)c(Cl)c1)C(=O)O; hPhe(3-F,4-CF3) = N[C@@H](CCc1ccc(C(F)(F)F)c(F)c1)C(=O)O; NMePhe(4-CF3) = CN[C@@H](Cc1ccc(C(F)(F)F)cc1)C(=O)O; NMePhe(4-Cl) = CN[C@@H](Cc1ccc(Cl)cc1)C(=O)O; NMePhe(4-Me) = CN[C@@H](Cc1ccc(C)cc1)C(=O)O; NMeNle(6-CHF2) = CN[C@@H](CCCCC(F)F)C(=O)O; Phe(3-I) = N[C@@H](Cc1cccc(I)c1)C(=O)O; Pro(4,4-F2) = O=C(O)[C@@H]1CC(F)(F)CN1; dαMeGly(allyl) = C=CC[C@@](C)(N)C(=O)O; NMe3Pal = CN[C@@H](Cc1cccnc1)C(=O)O; NMeCha = CN[C@@H](CC1CCCCC1)C(=O)O; NMeChg = CN[C@H](C(=O)O)C1CCCCC1; NMeF = CN[C@@H](Cc1ccccc1)C(=O)O; NMeI = CC[C@H](C)[C@H](NC)C(=O)O; NMeD = CN[C@@H](CC(=O)O)C(=O)O; NMeL = CN[C@@H](CC(C)C)C(=O)O; hLeu = CC(C)CC[C@H](N)C(=O)O; NMeNva = CCC[C@H](NC)C(=O)O; NMeV = CN[C@H](C(=O)O)C(C)C; d(β3hA) = C[C@@H](N)CC(=O)O; Morpholide = C1CN(*)CCO1; NMeA = CN[C@@H](C)C(=O)O; NMeAib = CNC(C)(C)C(=O)O; Nle = CCCC[C@H](N)C(=O)O; Piperidide = C1CCN(*)CC1; Pyrrolidide = C1CCN(*)C1; Ac5c = NC1(C(=O)O)CCCC1; Aze = O=C(O)[C@@H]1CCN1; Aib = CC(C)(N)C(=O)O; Sar = CNCC(=O)O
property: pIC50
Conceptually, pIC50 converts a concentration in mol/L into minus its log10.

Example entries begin here.
compound: CC[C@H](C)[C@@H]1NC(=O)[C@H](CC(C)C)N(C)C(=O)C[C@@H](C(=O)N(C)C)N(C)C(=O)[C@H]([C@@H](C)CC)N(C)C(=O)C2(CCCC2)NC(=O)[C@H](Cc2ccccc2)N(C)C(=O)[C@H](CCc2ccc(C(F)(F)F)c(Cl)c2)NC(=O)CN(C)C(=O)[C@H](Cc2ccc(C)cc2)N(C)C(=O)[C@@H]2CCN2C(=O)[C@H](C)N(C)C1=O [Compound 958] ([NMeL]I[NMeA][Aze][NMePhe(4-Me)][Sar][hPhe(3-Cl-4-CF3)][NMeF][Ac5c][NMeI][NMeD]-NMe2; lactam N-11)
pIC50: 8.68
--
compound: CC[C@H](C)[C@@H]1NC(=O)[C@H](CC(C)C)N(C)C(=O)C[C@@H](C)NC(=O)[C@H](C(C)C)N(C)C(=O)C2(CCCC2)NC(=O)[C@@H]2CCCN2C(=O)[C@H](CCc2ccc(C(F)(F)F)c(Cl)c2)NC(=O)CN(C)C(=O)[C@H](COc2ccccc2Cl)N(C)C(=O)CN(C)C(=O)CN(C)C1=O
pIC50: 7.46
--
compound: CCCC[C@@H]1NC(=O)[C@H](Cc2cccc(I)c2)NC(=O)CN(C)C(=O)[C@H](Cc2ccc(C(F)(F)F)cc2)N(C)C(=O)CN(C)C(=O)CN(C)C(=O)[C@H]([C@@H](C)CC)NC(=O)[C@H](CC(C)C)N(C)C(=O)C[C@@H](C(=O)N2CCCCC2)N(C)C(=O)[C@H](CCC(C)C)NC(=O)C(C)(C)N(C)C1=O [Compound 1433] ([NMeL]I[Sar][Sar][NMePhe(4-CF3)][Sar][Phe(3-I)][Nle][NMeAib][hLeu][NMeD]-Piperidide; lactam N-11)
pIC50: 7.54
--
compound: CC[C@H](C)[C@@H]1NC(=O)[C@H](CC(C)C)N(C)C(=O)C[C@@H](C(=O)N2CCCCC2)N(C)C(=O)[C@H](CC(C)C)N(C)C(=O)C(C)(C)NC(=O)[C@H](CC(C)C)N(C)C(=O)[C@H](CCc2ccc(C(F)(F)F)c(F)c2)NC(=O)CN(C)C(=O)[C@H](CCCCC(F)F)N(C)C(=O)CN(C)C(=O)CN(C)C1=O [Compound 1456] ([NMeL]I[Sar][Sar][NMeNle(6-CHF2)][Sar][hPhe(3-F,4-CF3)][NMeL][Aib][NMeL][NMeD]-Piperidide; lactam N-11)
pIC50: 7.92
--
compound: C=CC[C@@]1(C)NC(=O)[C@@H]2CCCN2C(=O)[C@H](CCc2ccc(C(F)(F)F)c(Cl)c2)NC(=O)CN(C)C(=O)[C@H](CC2CCCCC2)N(C)C(=O)CN(C)C(=O)CN(C)C(=O)[C@H]([C@@H](C)CC)NC(=O)[C@H](CC(C)C)N(C)C(=O)C[C@@H](C)NC(=O)[C@H](C(C)C)N(C)C1=O [Compound 665] (cyclo(I[Sar][Sar][NMeCha][Sar][hPhe(3-Cl-4-CF3)]P[dαMeGly(allyl)][NMeV][d(β3hA)][NMeL]))
pIC50: 7.43

Q) Return reported pIC50; argument: CC[C@H](C)[C@@H]1NC(=O)[C@H](C)N(C)C(=O)C[C@@H](C(=O)N2CCCCC2)N(C)C(=O)[C@H](C(C)C)N(C)C(=O)C2(CCCC2)NC(=O)[C@@H]2CCCN2C(=O)[C@H](CCc2ccc(C(F)(F)F)c(Cl)c2)NC(=O)[C@H]2CCCN2C(=O)[C@H](CC2CCCCC2)N(C)C(=O)[C@@H]2CCN2C(=O)CN(C)C1=O [Compound 447] ([NMeA]I[Sar][Aze][NMeCha][dP][hPhe(3-Cl-4-CF3)]P[Ac5c][NMeV][NMeD]-Piperidide; lactam N-11)
A) 7.85

Q) // same read-out, input: CC[C@H](C)[C@@H]1NC(=O)[C@H](C)N(C)C(=O)C[C@@H](C(=O)N2CCOCC2)N(C)C(=O)[C@H](C2CCCCC2)N(C)C(=O)C2(CCCC2)NC(=O)[C@H](Cc2cccnc2)N(C)C(=O)[C@H](CCc2ccc(C(F)(F)F)c(Cl)c2)NC(=O)CN(C)C(=O)[C@H](CC2CCCCC2)N(C)C(=O)[C@@H]2CCN2C(=O)CN(C)C1=O [Compound 1703] ([NMeA]I[Sar][Aze][NMeCha][Sar][hPhe(3-Cl-4-CF3)][NMe3Pal][Ac5c][NMeChg][NMeD]-Morpholide; lactam N-11)
A) 9.39

Q) // same read-out, input: CC[C@H](C)[C@@H]1NC(=O)[C@H](CC(C)C)N(C)C(=O)C[C@@H](C(=O)N(C)C)N(C)C(=O)[C@H]([C@@H](C)CC)N(C)C(=O)C2(CCCC2)NC(=O)[C@H](Cc2ccc(Cl)cc2)N(C)C(=O)[C@H](CCc2ccc(C(F)(F)F)c(Cl)c2)NC(=O)CN(C)C(=O)[C@H](Cc2ccc(C)cc2)N(C)C(=O)[C@@H]2CCN2C(=O)[C@H](C)N(C)C1=O [Compound 838] ([NMeL]I[NMeA][Aze][NMePhe(4-Me)][Sar][hPhe(3-Cl-4-CF3)][NMePhe(4-Cl)][Ac5c][NMeI][NMeD]-NMe2; lactam N-11)
A) 8.00

Q) // same read-out, input: CCC[C@H]1C(=O)N[C@@H]([C@@H](C)CC)C(=O)N(C)CC(=O)N(C)CC(=O)N(C)[C@@H](CC2CCCCC2)C(=O)N(C)CC(=O)N[C@@H](CCc2cc(F)c(C(F)(F)F)c(F)c2)C(=O)N2CC(F)(F)C[C@H]2C(=O)NC2(CCCC2)C(=O)N(C)[C@@H](C2CCCCC2)C(=O)N(C)[C@H](C(=O)N2CCCC2)CC(=O)N1C [Compound 1160] ([NMeNva]I[Sar][Sar][NMeCha][Sar][hPhe(3,5-F2-4-CF3)][Pro(4,4-F2)][Ac5c][NMeChg][NMeD]-Pyrrolidide; lactam N-11)
A) 9.38
